Ref: ChEMBL document CHEMBL4304770

Target: Histone-lysine N-methyltransferase SMYD3 (Homo sapiens, UniProt Q9H7B4)
Sequence (Q9H7B4 whole entry): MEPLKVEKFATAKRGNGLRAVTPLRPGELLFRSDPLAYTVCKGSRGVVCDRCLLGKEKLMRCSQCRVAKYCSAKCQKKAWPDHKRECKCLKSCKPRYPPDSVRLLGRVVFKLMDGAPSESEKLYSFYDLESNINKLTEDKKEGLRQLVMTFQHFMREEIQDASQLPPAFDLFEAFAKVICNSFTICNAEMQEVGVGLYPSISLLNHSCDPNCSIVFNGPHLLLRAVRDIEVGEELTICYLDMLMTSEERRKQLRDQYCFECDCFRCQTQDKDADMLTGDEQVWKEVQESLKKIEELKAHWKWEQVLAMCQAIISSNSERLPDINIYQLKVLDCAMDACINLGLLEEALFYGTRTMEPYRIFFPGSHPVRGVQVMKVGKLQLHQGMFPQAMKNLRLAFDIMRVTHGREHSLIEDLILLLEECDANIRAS
quantityMeasured: pIC50
The quantity pIC50 is defined as the negative base-10 logarithm of the molar concentration.

itemSmiles: CCOC(=O)N1CCN(C(=O)c2ccc3c(Cl)c4c(nc3c2)CCCCC4)CC1
pIC50: 4.69

itemSmiles: CCCOC(=O)N1CCN(C(=O)c2ccc3c(Cl)cc(-c4ccc(C5(N)CC5)cc4)nc3c2)C[C@H]1C
pIC50: 7.93

itemSmiles: COC(=O)N1CCN(C(=O)c2ccc3c(Cl)c4c(nc3c2)CCCC4)CC1
pIC50: 3.91

itemSmiles: CCCOC(=O)N1CCN(C(=O)c2ccc3c(Cl)cc(-c4ccc(C)cc4)nc3c2)CC1
pIC50: 6.43

Now, please, on to the next compound.
Task: Please report the recorded pIC50 for CCOC(=O)N1CCN(C(=O)c2ccc3c(Cl)c4c(nc3c2)CCC4)CC1 .
Output: 4.52
